Documented potentiation across a set of molecules
molecular target: D(1A) dopamine receptor (Homo sapiens); test: Potentiators of Human D1 Dopamine Receptor: qHTS; details: HEK293 TREx D1 cells, calcium flux, dopamine EC20 potentiation; at 10 µM; hits give high values; further: 0% is about no effect
About 130 (0.036%) of roughly 360,000 compounds were called active. The sample holds actives, similar compounds and a random draw of the others, so the mix is not that of the screen.
METRIC: potentiation (%)

INSERT INTO measurements (molecule, scale_unit, observed_result) VALUES
  ('COc1cc(CN(CC2CCCO2)C(=O)c2ccccc2F)cc(OC)c1OC (configuration not stated)', '%', 5),
  ('O=C(CNC(=O)c1ccc(Cl)cc1Cl)OC(C(=O)Nc1cc(C(F)(F)F)ccc1Cl)c1ccccc1 (configuration not stated)', '%', -4),
  ('COc1cccc(NC(=O)N(Cc2cn(C)c3ccccc23)C2CCCCCC2)c1', '%', 1.8),
  ('CCOc1ccc(N2CC(C)Cn3c2nc2c3c(=O)n(Cc3c(F)cccc3Cl)c(=O)n2C)cc1 (configuration not stated)', '%', 1.1),
  ('CCCCC(CC)CNC(=O)C1CCN(S(=O)(=O)c2cccc3nsnc23)CC1 (configuration not stated)', '%', 3.8),
  ('CCSc1nnc(NC(=O)c2cc(=O)c3cc(C)c(C)cc3o2)s1', '%', 0.15),
  ('O=C(CSc1nc2nccnc2c(=O)n1CCc1c[nH]c2ccccc12)Nc1ccccc1F', '%', -3.65);

* * *

Here the recorded potentiation is given for each entry.
molecular target: D(1A) dopamine receptor (Homo sapiens); assay: Potentiators of Human D1 Dopamine Receptor: qHTS; conditions: HEK293 TREx D1 cells, calcium flux, dopamine EC20 potentiation; at 10 µM; hits give high values; further: 0% is about no effect
In all, about 360,000 compounds went through this assay and about 130 (0.036%) were called active. For the sample, actives were picked, then their nearest neighbours and some compounds at random.
METRIC: potentiation (%)

INSERT INTO assay_data (compound, observed_result) VALUES
  ('Cn1nnnc1Sc1ncnc2scc(-c3ccccc3[N+](=O)[O-])c12', 9.9),
  ('O=C(CCS(=O)(=O)c1ccccc1)N(Cc1cccnc1)c1nc2c(F)cccc2s1', -1.7),
  ('CCOc1ccc(N(Cc2ccccc2)C(=O)c2nc(S(C)(=O)=O)ncc2Cl)cc1', -0.05),
  ('CCCCN(CC)CCCNC(=O)Cn1ncc2c([nH]c3ccc(C)cc32)c1=O', 1.4),
  ('CCN1C(=O)c2ccccc2S(=O)c2ccc(C(=O)NCc3ccc(F)cc3)cc21 (centres undefined)', 3),
  ('COc1ccc(N2CCN(S(=O)(=O)CCNC(=O)C(c3ccccc3)c3ccccc3)CC2)cc1', -0.4),
  ('CCc1ccccc1NC(=O)c1ccc2nc(CCc3ccccc3)oc2c1', 1),
  ('CCOc1ccc(C2C(C#N)=C(N)N(N(C)C)C3=C2C(=O)CCC3)cc1 (centres undefined)', -0.15),
  ('O=C(Cn1cc(SCc2cccc(Cl)c2)c2ccccc21)N1CCCCC1', -2.05);
